Test system: SARS-CoV-2
Assay: Antiviral activity against SARS-CoV-2 JPN/TY/WK-521 infected in Vero E6 cells assessed as inhibition of viral replication preincubated with cells for 1 day followed by viral infection and measured after 3 to 4 days by qRT-PCR analysis
Type: functional, organism-based
Details: Severe acute respiratory syndrome coronavirus 2, JPN/TY/WK-521, Vero C1008
Quantity Kind: EC50

1. CC(C)(C)[C@H](NC(=O)C(F)(F)F)C(=O)N1C[C@H]2[C@@H]([C@H]1C(=O)N[C@@H](C[C@@H]1CCNC1=O)C(=O)c1nc3c(F)cccc3s1)C2(C)C :: 30 nM
2. CC(C)(C)[C@H](NC(=O)C(F)(F)F)C(=O)N1C[C@H]2[C@@H]([C@H]1C(=S)N[C@@H](C[C@@H]1CCNC1=O)C(=O)c1nc3c(F)cccc3s1)C2(C)C :: 220 nM

FYI, the data here is from ChEMBL document CHEMBL5365531.
